System: Sarcoma 180 solid tumour
Experiment: animal or person
Details: chemotherapeutic index
Would you mind labelling by CI (LD50/ED50)? At or over 4 is met, under is not met.

These solved cases illustrate the format of a correct answer.
- molecule: "CO[C@@]12[C@H](COC(N)=O)C3=C(C(=O)C(C)=C(NCCCCCCSC(C)=O)C3=O)N1C[C@@H]1N[C@@H]12"
  class-assignment: "met"
- molecule: "CO[C@@]12[C@H](COC(N)=O)C3=C(C(=O)C(C)=C(NCCCCCCCCSC(C)=O)C3=O)N1C[C@@H]1N[C@@H]12"
  class-assignment: "met"
- molecule: "CO[C@@]12[C@H](COC(N)=O)C3=C(C(=O)C(C)=C(NCCCSC(C)=O)C3=O)N1C[C@@H]1N[C@@H]12"
  class-assignment: "not met"
- molecule: "CO[C@@]12[C@H](COC(N)=O)C3=C(C(=O)C(C)=C(NCCSC(=O)c4ccc(Br)cc4)C3=O)N1C[C@@H]1N[C@@H]12"
  class-assignment: "met"
- molecule: "CO[C@@]12[C@H](COC(N)=O)C3=C(C(=O)C(C)=C(NCCCCCCCCSC(=O)c4ccc(F)cc4)C3=O)N1C[C@@H]1N[C@@H]12"
  class-assignment: "not met"

Could you verify whether the entry CCC(=O)SCCNC1=C(C)C(=O)C2=C(C1=O)[C@@H](COC(N)=O)[C@@]1(OC)[C@H]3N[C@H]3CN21 shows CI (LD50/ED50) of no less than 4?
not met

Could you verify whether the entry CO[C@@]12[C@H](COC(N)=O)C3=C(C(=O)C(C)=C(NCCCCCCSC(=O)c4ccccc4)C3=O)N1C[C@@H]1N[C@@H]12 shows CI (LD50/ED50) of no less than 4?
met

Could you verify whether the entry COc1ccc(C(=O)SCCNC2=C(C)C(=O)C3=C(C2=O)[C@@H](COC(N)=O)[C@@]2(OC)[C@H]4N[C@H]4CN32)cc1 shows CI (LD50/ED50) of no less than 4?
not met

Could you verify whether the entry COc1ccc(C(=O)SCCNC2=C(C)C(=O)C3=C(C2=O)[C@H](COC(N)=O)[C@@]2(O)[C@@H]4[C@H](CN32)N4C)cc1 (stereo partly shown) shows CI (LD50/ED50) of no less than 4?
not met

Could you verify whether the entry CO[C@@]12[C@H](COC(N)=O)C3=C(C(=O)C(C)=C(NCCSC(C)=O)C3=O)N1C[C@H]1[C@@H]2N1C (stereo partly shown) shows CI (LD50/ED50) of no less than 4?
not met

Could you verify whether the entry CO[C@@]12[C@H](COC(N)=O)C3=C(C(=O)C(C)=C(NCCSC(=O)c4ccccc4)C3=O)N1C[C@@H]1N[C@@H]12 shows CI (LD50/ED50) of no less than 4?
not met

Could you verify whether the entry CC1=C(NCCSC(=O)c2ccc([N+](=O)[O-])cc2)C(=O)C2=C(C1=O)N1C[C@H]3[C@H](N3C)[C@]1(O)[C@H]2COC(N)=O (stereo partly shown) shows CI (LD50/ED50) of no less than 4?
met

Could you verify whether the entry CC(=O)SCCNC1=C(C)C(=O)C2=C(C1=O)[C@H](COC(N)=O)[C@@]1(O)[C@@H]3[C@H](CN21)N3C (stereo partly shown) shows CI (LD50/ED50) of no less than 4?
met

Could you verify whether the entry CO[C@@]12[C@H](COC(N)=O)C3=C(C(=O)C(C)=C(NCCSC(C)=S)C3=O)N1C[C@@H]1N[C@@H]12 shows CI (LD50/ED50) of no less than 4?
met

Could you verify whether the entry CC1=C(NCCSC(=O)c2ccc(F)cc2)C(=O)C2=C(C1=O)N1C[C@H]3[C@H](N3C)[C@]1(O)[C@H]2COC(N)=O (stereo partly shown) shows CI (LD50/ED50) of no less than 4?
not met

Could you verify whether the entry CO[C@@]12[C@H](COC(N)=O)C3=C(C(=O)C(C)=C(NCCSC(C)=O)C3=O)N1C[C@@H]1N[C@@H]12 [Compound 1, 7-N-[(2-acetylthio)ethyl]mitomycin] shows CI (LD50/ED50) of no less than 4?
not met

Could you verify whether the entry CO[C@@]12[C@H](COC(N)=O)C3=C(C(=O)C(C)=C(NCCSC(=O)c4ccc(F)cc4)C3=O)N1C[C@@H]1N[C@@H]12 shows CI (LD50/ED50) of no less than 4?
not met

Could you verify whether the entry C=C1C2=C(C(=O)C(C)=C(NCCSC(C)=O)C2=O)N2C[C@H]3[C@H](N3C)[C@]12O (stereo partly shown) shows CI (LD50/ED50) of no less than 4?
not met
